# Tested on: 786-0 renal
# protocol details: NCI-60 one-dose screen, 48 h
# recorded conditions: 10 µM unless noted
The panel holds about 83,000 compounds, 20% with a hit somewhere; the sample as a whole holds those more often. The source made the active and inactive calls. The calls were made as follows: active = growth percent below 10; inactive = the rest.
Returns: one label drawn from active, inactive

Would you please look over these solved cases?
C[C@]12C[C@H](O)[C@H]3[C@@H](CCC4=CC(=O)CC[C@@]43C)[C@@H]1CC[C@@H]2C(=O)CO = inactive
COc1ccc(-c2csc(NC(=O)c3cc(OC)c(OC)c(OC)c3)n2)cc1 = inactive
COc1ccc(-c2cnnn2-c2cc(OC)c3c(c2)OCO3)cc1 = inactive
CCCCCCCCCCC[C@@H](C[C@H]1OC(=O)[C@H]1CCCCCC)OC(=O)[C@@H](CC(C)C)NC=O = inactive
COc1ccc(-c2csc(NC(=O)c3cc(O)c(O)c(O)c3)n2)cc1 = inactive

Exam item: Write down the call the test reported for this compound. Item: CC1(C)OC(=O)C(=Cc2ccccc2Br)C(=O)O1
Marked response: inactive

Exam item: What outcome does the record of this test show for COc1ccc(/C=N/NC(=O)c2ccc(S(C)(=O)=O)cc2)cc1OC ?
Marked response: inactive

---

# Test system: A498 renal
# protocol details: NCI-60 one-dose screen, 48 h (100 = growth as untreated, 0 = no growth, -100 = all killed)
# recorded conditions: 10 µM unless noted
This is part of a sample that, as a whole, favours compounds with a hit. Of some 83,000 tested, about 20% had one in any assay.
reported metric: growth (%)
Return type: number; implicit unit %.

CCC(c1ccccc1)c1noc(CCN(CC)CC)n1 (stereo not given) = 101

Exam item: growth for CCc1ccc(CCN2C(=O)c3ccccc3C2=O)nc1 ?
Marked response: 120

Exam item: Request the reported growth associated with COc1cccc(/C=C2\COc3ccc(O)c(O)c3C2=O)c1OC
Marked response: 80.3

Exam item: What growth value was documented for this molecule, CN(C)c1nc(-c2ccco2)n2nc(-c3ccco3)cc2n1 ?
Marked response: 79.9

---

# Test system: SK-MEL-2 melanoma
# protocol details: NCI-60 one-dose screen, 48 h (100 = growth as untreated, 0 = no growth, -100 = all killed)
# recorded conditions: 10 µM unless noted
The panel holds about 83,000 compounds, 20% with a hit somewhere; the sample as a whole holds those more often.
Quick list: growth per entry.
API: value field is a number in %; no unit string.

Exam item: Given the compound CCOC(=O)c1c2c(c(C)n1Cc1ccc(OC)cc1)-c1nc(N)ncc1CC2 , what is its reported growth?
Marked response: 119

Exam item: Need growth of COc1cc(C2CC(=O)Nc3c2cc(Br)c2ccccc32)cc(Br)c1OC (stereo unspecified) , thanks.
Marked response: 58.7

Exam item: growth lookup needed for Nc1ccc2c3c(cccc13)-c1ccccc1-2 , thanks.
Marked response: 105

Exam item: What value of growth has been reported for the following compound? COc1ccc(OC)c(NC(=O)c2cc3oc4ccccc4c3cc2O)c1
Marked response: 96.1

Exam item: Dear colleague, I am looking for the recorded growth of the following compound: CC(C)C(=O)Cc1cnccn1
Marked response: 109

Exam item: // growth lookup, key: COc1cccc(-c2nnc(N)o2)c1
Marked response: 107

---

# System: SW-620 colon
# protocol details: NCI-60 one-dose screen, 48 h
# recorded conditions: 10 µM unless noted
# Method: Growth inhibition of the SW-620 human tumor cell line is measured as a screen for anti-cancer activity. Cells are grown in 96 well plates and exposed to the test compound for 48 hours. Compounds are tested at a single concentration, which is 10^-5 M for most compounds. The reported endpoint is percent growth (GI% or GIPRCNT), where numbers from 0 - 100% represent growth inhibition, and numbers from -100% - 0 represent cell death. For example, a value of 40 represents 60% growth inhibition. […]
Compounds without any hit were thinned out: in the full panel of roughly 83,000, 20% have a hit. The source made the active and inactive calls. How the source made its calls: active means growth percent below 10; inactive means the rest.
Your reply should match one of these outcome classes. 1.0 for active, 0.0 for inactive

Worked examples follow.
Nc1nc(Cl)c2[nH]cnc2n1 = 0.0
COc1c(C)c2c(c(O)c1C/C=C(\C)CCC(=O)OCCN1CCOCC1)C(=O)OC2 = 0.0
CC1SC(c2c(Cl)cccc2Cl)N(NC(=O)c2[nH]c3ccc(F)cc3c2-c2ccccc2)C1=O (configuration not stated) = 0.0
CN(C)c1cccc2c(S(=O)(=O)N[C@H]3CC[C@H]4[C@@H]5CCc6cc(O)ccc6[C@H]5CC[C@]34C)cccc12 = 0.0
CCCCCCOc1ccc(/C=N/NC(N)=S)cc1 = 0.0

Now look at this one.
Exam item: Identify the outcome logged in this assay for the compound shown: O=C(/C=C/c1cccnc1)NCCCCC1CCCN(C(=O)c2ccccc2)C1 (configuration not stated)
Marked response: 0.0

---

compounds and their reported growth
# System: NCI/ADR-RES ovarian
# protocol details: NCI-60 one-dose screen, 48 h (100 = growth as untreated, 0 = no growth, -100 = all killed)
# recorded conditions: 10 µM unless noted
Compounds without any hit were thinned out: in the full panel of roughly 83,000, 20% have a hit. Active and inactive are the calls of the source. How the source made its calls: active means growth percent below 10; inactive means the rest.

Here's what some known entries look like.
COc1ccc(-c2c(-c3cc(OC)c(OC)c(OC)c3)noc2N)cc1 = 11.1% (inactive)
O=C(O)C(=O)O = -36.5% (active)
O=C1/C(=C/c2ccc([N+](=O)[O-])s2)Oc2ccc(Br)cc21 = -31.2% (active)
Cc1cc(=O)n2n1-c1ccc(Cl)cc1NC(=O)C2 = 108% (inactive)
C[n+]1ccc(C#N)c2ccccc21 = 101% (inactive)
COc1ccc(/C=N\Nc2ccc([N+](=O)[O-])cn2)cc1OC = 65% (inactive)

Exam item: Could you tell me which growth is on file for CSc1ncc2ncn(C3OC(CO)C(O)C3O)c2n1 (configuration not stated) ?
Marked response: 143% (inactive)

Exam item: Find the recorded growth belonging to CC(C)[C@H]1CC[C@H]2[C@@H](CC[C@H]3[C@](C)(CN)CCC[C@]23C)C1 and report it.
Marked response: 89.5% (inactive)

Exam item: Recorded growth of Cc1cc(NC(=O)Nc2cc(Cl)ccc2C)no1 , please.
Marked response: 101% (inactive)

---

# System: HCC-2998 colon
# protocol details: NCI-60 one-dose screen, 48 h (100 = growth as untreated, 0 = no growth, -100 = all killed)
# recorded conditions: 10 µM unless noted
This is part of a sample that, as a whole, favours compounds with a hit. Of some 83,000 tested, about 20% had one in any assay.
The reader will find reported growth values listed item by item below.
Hi! Could you send only the number? It should be in %, unit omitted.

COc1ccc2c(c1)C(=O)c1c-2c(OCCCN(C)C)nc2cc(Br)ccc12 = 69.6
Oc1ccc(Cc2ccc(O)c(C3CC(c4ccc(Cl)cc4)=NN3)c2)cc1C1CC(c2ccc(Cl)cc2)=NN1 (stereo not given) = 11.3
COC1CC2CCC(C)C(O)(O2)C(=O)C(=O)N2CCCCC2C(=O)OC(C(C)CC2CCC(O)C(OC)C2)CC(=O)C(C)C=C(C)C(O)C(OC)C(=O)C(C)CC(C)/C=C/C=C/C=C1C (stereo not given) = 50.4

Exam item: What measured growth goes with COc1cc(/C=C2\COc3ccc(O)c(O)c3C2=O)cc(OC)c1 ?
Marked response: 25.1

Exam item: If you can, please state the reported growth value of Cc1nn(-c2ccc(Cl)cc2)c2nc3c(nc12)C(=O)c1ccccc1-3 .
Marked response: 52.5

Exam item: Entry OCCOc1c(Cl)cc(Cl)cc1Cl has what growth?
Marked response: 110

---

Quick list: growth per entry.
# Test system: COLO 205 colon
# protocol details: NCI-60 one-dose screen, 48 h (100 = growth as untreated, 0 = no growth, -100 = all killed)
# recorded conditions: 10 µM unless noted
This is part of a sample that, as a whole, favours compounds with a hit. Of some 83,000 tested, about 20% had one in any assay.
Supply the numeric figure in %, leaving out any unit text.

COc1ccc2nc3cc(Cl)ccc3c(N3CCN(c4ccnc(Nc5ccc(F)cc5)n4)CC3)c2c1 = 108
CC1=CC(=O)C(C(C)=Nc2ccccc2Cl)C(=O)O1 (stereo not given) = 129
CN1CCN(CC(=O)Nc2nc3c(s2)Nc2cc(Cl)c(Cl)cc2NC3=O)CC1 = 107
COC(=O)C[C@@H]1CC=CC(=O)/C1=C(O)/C=C/c1ccccc1 = -57.2

Exam item: Tell me the measured growth of O=C(Nc1ccc(Cl)cc1)Nc1ccc(Oc2nncc3ccccc23)cc1 , please.
Marked response: 11.9

---

# System: UO-31 renal
# protocol details: NCI-60 one-dose screen, 48 h
# recorded conditions: 10 µM unless noted
Compounds without any hit were thinned out: in the full panel of roughly 83,000, 20% have a hit. The source made the active and inactive calls. Rule for the calls: active = growth percent below 10; inactive = the rest.
Answer with one of the outcomes 1 for active, 0 for inactive

Reference set, count: 3
CCCCCCCCSc1ncnc2c1ncn2CO = 0
N#CCNc1ccccc1N = 0
CC1=CSC2=NCCN12 = 0

Exam item: I would be grateful if you could indicate the recorded call for OCc1nnn(-c2ccccc2)c1CO .
Marked response: 0

Exam item: Tell me the assay call for N#Cc1c2ccccc2c2n1-c1ccccc1OC(c1ccccc1)C2=O (stereo not given) please.
Marked response: 0

Exam item: Any idea what this test logged for CC(=O)NC1(C(=O)O)CCCC1 ?
Marked response: 0

Exam item: Status in this test for O=[N+]([O-])c1ccc(N/N=C\c2ccccc2[N+](=O)[O-])nc1 ?
Marked response: 0

Exam item: Short answer needed: outcome of this test for CC[C@@H]1OC(=O)[C@H](C)[C@@H](O[C@H]2C[C@@](C)(OC)[C@@H](O)[C@H](C)O2)[C@H](C)[C@@H](O[C@@H]2O[C@H](C)C[C@H](N(C)C)[C@H]2O)[C@](C)(O)C[C@@H](C)[C@@H]2N[C@@H](COCCOC)O[C@H]([C@H]2C)[C@]1(C)O ?
Marked response: 0

Exam item: Hi team, can someone confirm the assay call for COC1CC2CCC(C)C(O)(O2)C(=O)C(=O)N2CCCCC2C(=O)OC(C(C)CC2CCC(O)C(OC)C2)CC(=O)C(C)C=C(C)C(O)C(OC)C(=O)C(C)CC(C)/C=C/C=C/C=C1C (stereo not given) ?
Marked response: 0

Exam item: Per the records of this test, what outcome belongs to COc1ccc(/C=N\Nc2ccc([N+](=O)[O-])cn2)cc1OC ?
Marked response: 1

Exam item: Given COc1cc([C@@H]2c3cc4c(cc3C(O[C@@H]3O[C@@H]5CO[C@@H](c6cccs6)OC5[C@H](O)[C@H]3O)C3COC(=O)[C@@H]32)OCO4)cc(OC)c1O (stereo not given in full) , state the outcome it received in this test.
Marked response: 1
